# Assay Protocol: drug combination growth inhibition, ovarian cancer – cell-based, oncology-focused library, rucaparib conditional, profiling panel (AID 1508598)
# Condition Summary: patient-derived ovarian cancer cells, CellTiter-Glo viability, 144 h; at 0.0195 µM; OCI-P5x cells; with rucaparib 20 µM; 100% = cells with rucaparib alone
Activity calls are given as the source filed them.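 The calls were made as follows: active = normalized viability below 100% at a tested concentration; inactive = the rest.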
API: response.call in active, inactive

Here are 4 compounds together with their reported answers.
                                 mol_smiles     label
0  CNC(=O)c1cc(COc2nnc(Nc3ccc(Cl)cc3)c3ccoc23)ccn1  inactive
1  CS(=O)(=O)N1CCc2c(-c3cnc(N)nc3)nc(N3CCOCC3)nc21  inactive
2  O=C(NCCCNc1nc(Nc2cccc(NC(=O)N3CCCC3)c2)ncc1I)c1cccs1  inactive
3  COC(=O)c1ccc2c(C(=Nc3ccc(N(C)C(=O)CN4CCN(C)CC4)cc3)c3ccccc3)c(O)[nH]c2c1    active

With those in mind, consider the next compound.
Call for entry Cc1ccc(S(=O)(=O)Nc2nc3ccccc3nc2Nc2ccc3nsnc3c2)cc1 :
inactive

----------
# Assay Protocol: drug combination growth inhibition, ovarian cancer – cell-based, oncology-focused library, rucaparib conditional, profiling panel (AID 1508598)
# Condition Summary: patient-derived ovarian cancer cells, CellTiter-Glo viability, 144 h; at 0.0195 µM; OCI-C5x cells; with rucaparib 10 µM; stronger effect = lower value; 100% = cells with rucaparib alone
We begin with a simple list: items and their reported viability.
Quick note: give the figure in %, leave out the unit.

# example entries with known answers
In [3]: df
Out[3]:
                                   compound  recorded_endpoint  quantitative_readout
0  CC[C@@H]1C(=O)N(C)c2cnc(Nc3ccc(C(=O)NC4CCC(N5CCN(CC6CC6)CC5)CC4)cc3OC)nc2N1C(C)C (some centres undefined)          viability                  51.8
1  C=CC(=O)N1CCC[C@@H](n2nc(-c3ccc(Oc4ccccc4)cc3)c3c(N)ncnc32)C1          viability                   112
2  Cc1cnc(-c2cnc(NCCNc3ccc(C#N)cn3)nc2-c2ccc(Cl)cc2Cl)[nH]1          viability                   126

Could you share which viability value was measured for C#CC[C@H](c1nc2cc(Cl)ccc2c(=O)n1Nc1ccccc1)N(CCCN)C(=O)c1cccc(Cl)c1F ?
125

Quick check: viability of CCOc1cc(N2CCC(O)CC2)ccc1Nc1ncc2c(n1)N(C)c1ccccc1C(=O)N2C ?
124

Which viability reading was recorded for the compound c1ccc2c(CCNc3ccc(Nc4ccncc4)cc3)c[nH]c2c1 ?
111

viability for O=C(NOC[C@H](O)CO)c1ccc(F)c(F)c1Nc1ccc(I)cc1F ?
111

Which viability value belongs to CC(C)n1nc(-c2ccc3oc(N)nc3c2)c2c(N)ncnc21 ?
87.5

# get_value(readout='viability', item= O=C(/C=C/c1cccc(S(=O)(=O)Nc2ccccc2)c1)NO )
104

----------
# Assay Protocol: viability loss in pontine glioma line – cell-based, SU-DIPG-XIII, MIPE4.0, CellTiter-Glo, qHTS, dose response (AID 1347061);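 also: cells exposed to compound for 48 hours before readout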
# Condition Summary: CellTiter-Glo ATP luminescence
Results filed as inconclusive are left out. Calls of active or inactive are those of the source. Cut-off not given; nearly all actives show AC50 up to about 37 µM.
Could you please pick one outcome from this set? True (active), False (inactive)

Consider the following illustrative entries.
>>> print(df.to_string())
                                   compound  label
0  C=CC(=O)Nc1cccc(Oc2nc(Nc3ccc(N4CCN(C)CC4)cc3OC)ncc2Cl)c1  False
1  Nc1nc(=O)n([C@H]2C[C@H](O)[C@@H](CO)O2)cc1F  False
2  C[C@H]1[C@H](C)CC[C@]2(C(=O)O)CC[C@]3(C)C(=CC[C@@H]4[C@@]5(C)C[C@@H](O)[C@H](O)[C@@](C)(CO)[C@@H]5CC[C@]43C)[C@H]12  False

Write down the call the test reported for this compound. Item: C/C=C1\NC(=O)[C@H]2CSSCC/C=C\[C@H](CC(=O)N[C@H](C(C)C)C(=O)N2)OC(=O)[C@H](C(C)C)NC1=O
True

Assay outcome for OC[C@H]1O[C@@H](OCCc2ccc(O)cc2)[C@H](O)[C@@H](O)[C@@H]1O : what was it?
False

# outcome recorded in this test, key = CCn1c(-c2nonc2N)nc2c(C#CC(C)(C)O)ncc(OC[C@H]3CCCNC3)c21
True

Which result was noted for this compound in the test: Cc1cnc(Nc2ccc(N3CCN(C)CC3)cc2)nc1Nc1cccc(S(=O)(=O)NC(C)(C)C)c1
True

# lookup: test call for CC(C)(O)c1cc2nc(-c3cnc(N)nc3)nc(N3CCOCC3)c2s1
True
